read-out: Monocyte Chemoattractant Protein-1 (MCP1), CCL2 (gene 6347); test: BSK_LPS_MCP1: BioMAP Diversity Plus: LPS Assay for Monocyte Chemoattractant Protein-1 (MCP1) Biomarker Activity (AID 2283081); conditions: primary human HUVEC with PBMC; actives raise or lower the signal
Activity calls are given as the source filed them. How the source made its calls: active means hit-call score of the fitted dose curve at least 0.9, where 1 is the maximum; inactive means score below 0.9.
# valid calls are active, inactive; nothing else

As a guide, the following entries are already answered.
IN: Please share the test call associated with CCNP(=S)(OC)O/C(C)=C/C(=O)OC(C)C (centres undefined) .
OUT: inactive

IN: Follow-up item: `COC(=O)N(C(=O)N1CO[C@@]2(C(=O)OC)Cc3cc(Cl)ccc3C2=N1)c1ccc(OC(F)(F)F)cc1`
OUT: inactive

IN: Moving on to the next compound: `Cc1ccc(N=CN(C)C=Nc2ccc(C)cc2C)c(C)c1`
OUT: active

IN: Entry to check: `Cc1cc(C)nc(Nc2ccccc2)n1`
OUT: inactive

IN: Let us now turn to `CC(C)N1C(=O)c2ccccc2NS1(=O)=O`
OUT: inactive

Next:
IN: Could you please tell me the result logged for `COc1cc(OC)nc(NC(=O)NS(=O)(=O)c2ncccc2OCC(F)(F)F)n1` in this assay?
OUT: inactive

IN: Try the compound `CSC(=O)c1c(C(F)F)nc(C(F)(F)F)c(C(=O)SC)c1CC(C)C`
OUT: inactive

Reference source for all entries: PubChem BioAssay (EPA / NIEHS)
